assay: Biodistribution in mice bearing PC-3 xenografts; format: in vivo, Balb/c nu/nu mice; conditions: Balb/c nu/nu, mouse, muscle, iv, 100 pmol, total radioactivity, PC-3 xenografted Balb/c nu/nu mice, iv 100 pmol; 4 h pi; mean ± SD, n = 4; read-out: Muscle activity uptake
Here the recorded tissue uptake at 4 h is given for each entry.
Write it as a number; the unit %ID/g goes unstated.

compound | units_symbol | tissue uptake at 4 h
CC(C)C[C@H](NC(=O)C[C@H](O)[C@H](CC(C)C)NC(=O)[C@H](Cc1c[nH]cn1)NC(=O)CN(C)C(=O)[C@@H](NC(=O)[C@H](C)NC(=O)[C@](C)(Cc1c[nH]c2ccccc12)NC(=O)[C@H](CCC(N)=O)NC(=O)[C@@H](Cc1ccccc1)NC(=O)CN1CCC(NC(=O)COCCOCCNC(=O)CN2CCN(CC(=O)O)CCN(CC(=O)O)CCN(CC(=O)O)CC2)CC1)C(C)C)C(N)=O [[^177Lu]Lu-PKB3, metal not drawn] | %ID/g | 0.1

Q. tissue uptake at 4 h for CC(C)C[C@H](NC(=O)C[C@H](O)[C@H](CC(C)C)NC(=O)[C@H](Cc1c[nH]cn1)NC(=O)CN(C)C(=O)[C@@H](NC(=O)[C@H](C)NC(=O)[C@](C)(Cc1c[nH]c2ccccc12)NC(=O)[C@H](CCC(N)=O)NC(=O)[C@@H](Cc1ccccc1)NC(=O)CN1CCC(NC(=O)COCCOCCNC(=O)CCC(C(=O)O)N2CCN(CC(=O)O)CCN(CC(=O)O)CCN(CC(=O)O)CC2)CC1)C(C)C)C(N)=O (some centres unmarked) [[^177Lu]Lu-PKB2, metal not drawn] ?
A. 0.05
